This section presents molecules with their documented fold induction at 10 µM values.
- Test system: TH in SHSY5Y
- ASSAY PROCEDURE: qPCR SHSY5Y TH
- Type: cell-based
- STATED CONDITIONS: Homo sapiens, SH-SY5Y, cpds tested at 10 μM
MEASURE NAME: fold induction at 10 µM

CC(C)(NC(=O)c1cc(Cl)cc(Cl)c1)c1cn(CCS)nn1 [SP 87]: > 1.5
CC(C)C(=O)SCCn1cc(C(C)(C)NC(=O)c2cc(Cl)cc(Cl)c2)nn1 [SP 163]: > 1.5
CC(C)(NC(=O)c1cc(Cl)cc(Cl)c1)c1cnn(CCS)c1 [SP 153]: > 4
CC(=O)SCCn1cc(C(C)(C)NC(=O)c2cc(Br)cc(Br)c2)nn1 [SP 173]: > 1.5
CC(C)(NC(=O)c1cc(Br)cc(Br)c1)c1cn(CCS)nn1 [SP 156]: > 4

* * *

- TESTED SYSTEM: Nurr1 (Homo sapiens, UniProt P43354)
- ASSAY PROCEDURE: Binding MST
- STATED CONDITIONS: analogs of compound 87
- Sequence (P43354 360-595 limits assumed): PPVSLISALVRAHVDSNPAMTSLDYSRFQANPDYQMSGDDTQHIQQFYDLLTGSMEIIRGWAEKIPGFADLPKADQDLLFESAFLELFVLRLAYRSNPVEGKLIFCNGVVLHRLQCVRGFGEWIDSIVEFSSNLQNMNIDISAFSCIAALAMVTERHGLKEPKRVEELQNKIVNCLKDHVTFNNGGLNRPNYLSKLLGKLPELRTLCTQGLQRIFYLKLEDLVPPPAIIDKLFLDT
MEASURE NAME: Binding MST

CC(C)(NC(=O)c1cc(Br)cc(Br)c1)c1cn(CCS)nn1: ++
CC(C)(NC(=O)c1cc(Cl)cc(Cl)c1)c1cn(CC(N)=O)nn1: +
CC(C)(NC(=O)c1cc(Cl)cc(Cl)c1)c1cn(CCc2ccccc2)nn1: +
CC(C)(NC(=O)c1cc(Cl)cc(Cl)c1)c1cnn(CCS)c1: +++
CC(C)(NC(=O)c1cc(Cl)cc(Cl)c1)c1cn(CCS)nn1: +++

* * *

- TESTED SYSTEM: Nurr1 (Homo sapiens)
- ASSAY PROCEDURE: Binding MST
- STATED CONDITIONS: analogs of compound 87
MEASURE NAME: Binding MST

CC(C)(NC(=O)c1ccc(Cl)c(Cl)c1)c1cn(CCS)nn1: +++
CC(C)(NCc1cc(Cl)cc(Cl)c1)c1cn(CCc2ccc(Cl)c(Cl)c2)nn1: +
C=CC(=O)n1cc(C(C)(C)NC(=O)c2cc(Cl)cc(Cl)c2)cn1: ++
COc1cc(OC)cc(C(=O)NC(C)(C)c2cn(CCS)nn2)c1: ++
CC(C)(NC(=O)c1ccccc1)c1cn(CCc2ccc(Cl)c(Cl)c2)nn1: +
CSSCCn1cc(C(C)(C)NC(=O)c2cc(Cl)cc(NC(C)=O)c2)nn1: +
COc1ccc(Cn2cc(C(C)(C)NC(=O)c3cc(Cl)cc(Cl)c3)nn2)cc1: +
CC(C)(NC(=O)c1cc(Cl)cc(Cl)c1)c1cn(Cc2ccccc2)nn1: +
CC(C)(NC(=O)c1cc(Cl)cc(Cl)c1)c1cnn(CCN)c1: +
CC(C)(NC(=O)c1cc(F)cc(F)c1)c1cn(CCS)nn1: ++
CCn1cc(C(C)(C)NC(=O)c2cc(Cl)cc(Cl)c2)nn1: +

* * *

- TESTED SYSTEM: Nurr1 (Homo sapiens, UniProt P43354)
- ASSAY PROCEDURE: Binding MST
- STATED CONDITIONS: analogs of compound 85
MEASURE NAME: Binding MST

O=C(COc1ccc(Cl)c(Cl)c1)NCCS: +++
O=C(COc1ccc(Cl)c(Cl)c1)NCCc1ccc(O)c(O)c1: +
O=C(COc1ccc(Cl)c(Cl)c1)NCc1ccc(O)c(O)c1: +
C=CC(=O)NNC(=O)COc1ccc(Cl)c(Cl)c1: +
C=CS(=O)(=O)NNC(=O)COc1ccc(Cl)c(Cl)c1: +

* * *

- TESTED SYSTEM: UniProt P43354
- ASSAY PROCEDURE: Luciferase cellular assay
- Assay type: cell-based
- Parameters: expressed in transfected cells; host or cells: SK-N-BE(2)C cells (ATCC CRL-2268)
- STATED CONDITIONS: cpds tested at 10 μM; analogs of compound 87
- Sequence (P43354 328-598): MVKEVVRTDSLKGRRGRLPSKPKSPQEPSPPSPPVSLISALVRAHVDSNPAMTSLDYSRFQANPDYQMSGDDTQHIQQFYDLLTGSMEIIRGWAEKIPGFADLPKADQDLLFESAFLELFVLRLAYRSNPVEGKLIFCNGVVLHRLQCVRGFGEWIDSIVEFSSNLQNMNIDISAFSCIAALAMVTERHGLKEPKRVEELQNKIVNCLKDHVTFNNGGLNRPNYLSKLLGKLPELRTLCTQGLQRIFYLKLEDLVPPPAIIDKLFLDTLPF
MEASURE NAME: Luciferase

CC(C)(NC(=O)c1cc(Br)cc(Br)c1)c1cn(CCS)nn1: +++ (+++ =>4−fold)
CC(=O)SCCn1cc(C(C)(C)NC(=O)c2cc(Br)cc(Br)c2)nn1: +++ (+++ =>4−fold)
CC(C)(NC(=O)c1ccc(Cl)c(Cl)c1)c1cn(CCS)nn1: +++ (+++ =>4−fold)

* * *

- TESTED SYSTEM: UniProt:P43354
pKd: −log10 of the molar value.
MEASURE NAME: pKd

Oc1cc2cc[nH]c2cc1O [DHI, 5,6-dihydroxyindole]: 5.30
